biological target: T1, Fc-tagged human Glypican 3 protein (Acro Biosystems, cat #GP3-H5258) (human, UniProt P51654 25-559); test: ELISA, Fab titrated on coated Fc-tagged human GPC3, anti-Lambda HRP detection
T1 construct: Bought; also called recombinant human GPC3; not shown: Fc tag
T1 sequence (P51654 25-559 limits assumed): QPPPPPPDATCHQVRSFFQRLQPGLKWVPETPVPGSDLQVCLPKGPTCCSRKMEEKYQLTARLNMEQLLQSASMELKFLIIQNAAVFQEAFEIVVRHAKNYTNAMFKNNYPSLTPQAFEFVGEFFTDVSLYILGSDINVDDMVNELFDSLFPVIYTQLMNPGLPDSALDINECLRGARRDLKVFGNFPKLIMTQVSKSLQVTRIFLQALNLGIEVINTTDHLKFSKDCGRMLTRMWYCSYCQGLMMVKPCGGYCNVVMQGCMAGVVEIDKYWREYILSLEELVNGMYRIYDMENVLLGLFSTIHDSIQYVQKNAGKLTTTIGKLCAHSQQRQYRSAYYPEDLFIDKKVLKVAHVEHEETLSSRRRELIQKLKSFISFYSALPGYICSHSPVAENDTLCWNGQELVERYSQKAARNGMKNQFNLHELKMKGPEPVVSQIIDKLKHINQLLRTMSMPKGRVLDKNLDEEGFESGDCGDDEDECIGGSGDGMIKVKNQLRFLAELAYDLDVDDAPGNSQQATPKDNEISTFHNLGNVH
// EC50 lookup, one value per entry

>  <Binder>
P17-15F8 Fab (Fab, V domains shown, Fab format) VH: EVQLVESGGGLVQPGGSLRLSCAASGFTFGNYAMSWVRQAPGKGLEWVSGVSGSGDGTYYADSVKGRFTISRDNSKNTLYLQMNSLRAEDTAVYYCAKEYDFGLGWMHYYYGMDVWGQGTTVTVSS VL: QSVLTQPPSVSGAPGQRVTISCTGSSSGYDVHWYQQLPGRAPKLLIYGSNNRPSGVPDRFSGSNSGTSASLAITGLQAEDEADYYCQSYDSSLNAIFGGGTKLTVL

>  <Value unit>
ng/mL

>  <EC50>
8.9

$$$$
>  <Binder>
P17-16A1 Fab (Fab, V domains shown, Fab format) VH: EVQLVESGGGLVQPGGSLRLSCAASGFTFKRYAMSWVRQAPGKGLEWVSSVSSSGTGTYYADSVKGRFTISRDNSKNTLYLQMNSLRAEDTAVYYCAKEYDYGLGWMHYYYGMDVWGQGTTVTVSS VL: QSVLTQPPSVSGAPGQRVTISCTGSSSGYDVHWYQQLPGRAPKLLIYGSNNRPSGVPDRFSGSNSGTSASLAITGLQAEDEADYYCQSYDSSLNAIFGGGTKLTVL

>  <Value unit>
ng/mL

>  <EC50>
9.3

$$$$
